Test details: Plasma stability and conversion to EFdA
Test parameters: human, plasma, pH 7.4
Observable: half-life at 2 µM

Prompt line: GET /values?readout=half-life at 2 µM&item= `C#C[C@]1(COC(=O)NC)O[C@@H](n2cnc3c(N)nc(F)nc32)C[C@@H]1O`
Response line: > 3.33 h

Prompt line: Would you mind doing `C#C[C@]1(COC(=O)OCc2oc(=O)oc2C)O[C@@H](n2cnc3c(N)nc(F)nc32)C[C@@H]1OC(=O)OCc1oc(=O)oc1C` as well?
Response line: < 0.833 h

Prompt line: How about this compound: `C#C[C@]1(COC(=O)NCCN(C)Cc2oc(=O)oc2C)O[C@@H](n2cnc3c(N)nc(F)nc32)C[C@@H]1O`
Response line: 0.833 to 3.33 h

Prompt line: Moving on to the next compound: `C#C[C@]1(CO)O[C@@H](n2cnc3c(NCc4oc(=O)oc4C)nc(F)nc32)C[C@@H]1O`
Response line: < 0.833 h

Prompt line: Follow-up entry: `C#C[C@]1(COC(=O)OCc2oc(=O)oc2C)O[C@@H](n2cnc3c(N)nc(F)nc32)C[C@@H]1O`
Response line: < 0.833 h

Prompt line: For `C#C[C@]1(COC(=O)NC(C)C)O[C@@H](n2cnc3c(N)nc(F)nc32)C[C@@H]1O` then?
Response line: > 3.33 h

Prompt line: Another compound to check: `C#C[C@]1(CO)O[C@@H](n2cnc3c(NC(=O)OC(C)C)nc(F)nc32)C[C@@H]1O`
Response line: > 3.33 h

---

Test details: Plasma exposures following IV infusion alone or in combination to Sprague-Dawley rats
Test parameters: male, Sprague-Dawley, rat, in vivo, 1 mg/kg, Lenacapavir Concentrations in Rat Plasma When Dosed Alone, Lenacapavir IV infusion 1.0 mg/kg alone; 0.0830 hrs; individual animals
Observable: concentration at 0.083 h (ng/mL)
Report only the number, with the unit ng/mL understood.

Prompt line: Could you share which concentration at 0.083 h value was measured for CC(C)(C#Cc1ccc(-c2ccc(Cl)c3c(NS(C)(=O)=O)nn(CC(F)(F)F)c23)c([C@H](Cc2cc(F)cc(F)c2)NC(=O)Cn2nc(C(F)(F)F)c3c2C(F)(F)[C@@H]2C[C@H]32)n1)S(C)(=O)=O [Lenacapavir, reference compound] ?
Response line: 692

---

Test details: Plasma exposures following IV infusion alone or in combination to Sprague-Dawley rats
Test parameters: male, Sprague-Dawley, rat, in vivo, 1 mg/kg, Lenacapavir Concentrations in Rat Plasma When Dosed Alone, Lenacapavir IV infusion 1.0 mg/kg alone; 0.167 hrs; Mean
Observable: concentration at 0.167 h (ng/mL)
Quick reminder: number only, in ng/mL, skip the unit.

Prompt line: Name the recorded concentration at 0.167 h for CC(C)(C#Cc1ccc(-c2ccc(Cl)c3c(NS(C)(=O)=O)nn(CC(F)(F)F)c23)c([C@H](Cc2cc(F)cc(F)c2)NC(=O)Cn2nc(C(F)(F)F)c3c2C(F)(F)[C@@H]2C[C@H]32)n1)S(C)(=O)=O [Lenacapavir, reference compound] .
Response line: 739

---

Test details: Plasma exposures following IV infusion alone or in combination to Sprague-Dawley rats
Test parameters: male, Sprague-Dawley, rat, in vivo, 1 mg/kg, Lenacapavir Concentrations in Rat Plasma When Dosed Alone, Lenacapavir IV infusion 1.0 mg/kg alone; 7.00 hrs; Mean
Observable: concentration at 7 h (ng/mL)
Write it as a number; the unit ng/mL goes unstated.

Prompt line: What value of concentration at 7 h has been reported for the following compound? CC(C)(C#Cc1ccc(-c2ccc(Cl)c3c(NS(C)(=O)=O)nn(CC(F)(F)F)c23)c([C@H](Cc2cc(F)cc(F)c2)NC(=O)Cn2nc(C(F)(F)F)c3c2C(F)(F)[C@@H]2C[C@H]32)n1)S(C)(=O)=O [Lenacapavir, reference compound]
Response line: 138

---

Test details: Plasma exposures following IV infusion alone or in combination to Sprague-Dawley rats
Test parameters: male, Sprague-Dawley, rat, in vivo, 1 mg/kg, Lenacapavir Concentrations in Rat Plasma When Dosed Alone, Lenacapavir IV infusion 1.0 mg/kg alone; 2.00 hrs; Mean
Observable: concentration at 2 h (ng/mL)
Express your answer in ng/mL, writing the number without its unit.

Prompt line: Need concentration at 2 h of CC(C)(C#Cc1ccc(-c2ccc(Cl)c3c(NS(C)(=O)=O)nn(CC(F)(F)F)c23)c([C@H](Cc2cc(F)cc(F)c2)NC(=O)Cn2nc(C(F)(F)F)c3c2C(F)(F)[C@@H]2C[C@H]32)n1)S(C)(=O)=O [Lenacapavir, reference compound] , thanks.
Response line: 150

---

Test details: Plasma exposures following IV infusion alone or in combination to Sprague-Dawley rats
Test parameters: male, Sprague-Dawley, rat, in vivo, Lenacapavir Concentrations in Rat Plasma When Dosed with Prodrug formula 4-A, Lenacapavir IV infusion 1.0 mg/kg with Prodrug formula 4-A; 12.0 hrs; Mean
Description: The pharmacokinetics of EFdA and prodrug formula 4-A, as well as lenacapavir were studied in rats after IV infusion administration alone or in combination at a dose of 1.0 mg/kg each. […] Bioanalysis: A Sciex API-6500 Plus triplequadrupole mass spectrometer coupled with a Waters Acquity UPLC system (Framingham, MA 01701) was used for quantitative analysis of plasma samples. […] Overall, Analyst® determined the precision and accuracy for the calibration standards and QC samples.
Observable: concentration at 12 h (ng/mL)
All answers are understood in ng/mL, so give the number only.

Prompt line: What value of measured concentration at 12 h is listed for CC(C)(C#Cc1ccc(-c2ccc(Cl)c3c(NS(C)(=O)=O)nn(CC(F)(F)F)c23)c([C@H](Cc2cc(F)cc(F)c2)NC(=O)Cn2nc(C(F)(F)F)c3c2C(F)(F)[C@@H]2C[C@H]32)n1)S(C)(=O)=O [Lenacapavir, reference compound] ?
Response line: 128

---

Test details: Plasma exposures following IV infusion alone or in combination to Sprague-Dawley rats
Test parameters: male, Sprague-Dawley, rat, in vivo, 1 mg/kg, Lenacapavir Concentrations in Rat Plasma When Dosed Alone
Observable: concentration at 48 h
Please answer using the number first and the unit second.

Prompt line: Which concentration at 48 h is reported for this compound? CC(C)(C#Cc1ccc(-c2ccc(Cl)c3c(NS(C)(=O)=O)nn(CC(F)(F)F)c23)c([C@H](Cc2cc(F)cc(F)c2)NC(=O)Cn2nc(C(F)(F)F)c3c2C(F)(F)[C@@H]2C[C@H]32)n1)S(C)(=O)=O [Lenacapavir, reference compound]
Response line: 107 ng/mL

---

Test details: Plasma exposures following IV infusion alone or in combination to Sprague-Dawley rats
Test parameters: male, Sprague-Dawley, rat, in vivo, 1 mg/kg, Lenacapavir Concentrations in Rat Plasma When Dosed Alone, Lenacapavir IV infusion 1.0 mg/kg alone; 0.0830 hrs; Mean
Observable: concentration at 0.083 h (ng/mL)
All answers are understood in ng/mL, so give the number only.

Prompt line: Can you look up the measured concentration at 0.083 h of CC(C)(C#Cc1ccc(-c2ccc(Cl)c3c(NS(C)(=O)=O)nn(CC(F)(F)F)c23)c([C@H](Cc2cc(F)cc(F)c2)NC(=O)Cn2nc(C(F)(F)F)c3c2C(F)(F)[C@@H]2C[C@H]32)n1)S(C)(=O)=O [Lenacapavir, reference compound] for me?
Response line: 612

---

Test details: Liver S9 stability and conversion to EFdA
Format: in vitro ADME, human
Test parameters: human liver S9
Observable: Stability in Human Liver S9 Formation of EFdA

Known results for molecules:
Mol smiles | Result
C#C[C@]1(CO)O[C@@H](n2cnc3c(NC(=O)OC(C)C)nc(F)nc32)C[C@@H]1O | No
C#C[C@]1(COC(=O)OCc2oc(=O)oc2C)O[C@@H](n2cnc3c(N)nc(F)nc32)C[C@@H]1OC(=O)OCc1oc(=O)oc1C | Yes
C#C[C@]1(COC(=O)NC(C)C)O[C@@H](n2cnc3c(N)nc(F)nc32)C[C@@H]1O | No
C#C[C@]1(COC(=O)NCCN(C)Cc2oc(=O)oc2C)O[C@@H](n2cnc3c(N)nc(F)nc32)C[C@@H]1O | No
C#C[C@]1(COC(=O)OCc2oc(=O)oc2C)O[C@@H](n2cnc3c(N)nc(F)nc32)C[C@@H]1O | Yes
C#C[C@]1(COC(=O)NC)O[C@@H](n2cnc3c(N)nc(F)nc32)C[C@@H]1O | No

Switching to the query record.
Prompt line: Bench note: what Stability in Human Liver S9 Formation of EFdA did `C#C[C@]1(CO)O[C@@H](n2cnc3c(NCc4oc(=O)oc4C)nc(F)nc32)C[C@@H]1O` show?
Response line: Yes

---

Test details: Plasma exposures following IV infusion alone or in combination to Sprague-Dawley rats
Test parameters: male, Sprague-Dawley, rat, in vivo, Lenacapavir Concentrations in Rat Plasma When Dosed with Prodrug formula 4-A, Lenacapavir IV infusion 1.0 mg/kg with Prodrug formula 4-A; 1.00 hrs; Mean
Observable: concentration at 1 h (ng/mL)
Answer in ng/mL, number only, no unit symbol.

Prompt line: Can you look up the measured concentration at 1 h of CC(C)(C#Cc1ccc(-c2ccc(Cl)c3c(NS(C)(=O)=O)nn(CC(F)(F)F)c23)c([C@H](Cc2cc(F)cc(F)c2)NC(=O)Cn2nc(C(F)(F)F)c3c2C(F)(F)[C@@H]2C[C@H]32)n1)S(C)(=O)=O [Lenacapavir, reference compound] for me?
Response line: 162
